Attribution: patent US10106582B2

system: IGFBP-3 (Homo sapiens, UniProt P17936)
Construct: purchased GroPep
Sequence (P17936 28-291): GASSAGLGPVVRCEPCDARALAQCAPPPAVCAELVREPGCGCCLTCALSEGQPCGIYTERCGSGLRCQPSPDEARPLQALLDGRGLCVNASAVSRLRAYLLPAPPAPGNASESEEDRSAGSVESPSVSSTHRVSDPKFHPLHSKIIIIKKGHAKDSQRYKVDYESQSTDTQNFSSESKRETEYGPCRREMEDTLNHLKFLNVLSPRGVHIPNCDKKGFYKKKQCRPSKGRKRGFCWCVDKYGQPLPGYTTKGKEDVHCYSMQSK
assay.notes: VN-peptide array: binding of IGFBP-3 to immobilized overlapping 16-mer VN peptides
condition.description: relative spot intensity on VN-peptide array after IGFBP-3 incubation, vs average intensity of negative controls (TotalLab)
Where no end group is shown, it is not given here.
assay.endpoint: Intensity (against −ve control), BP3

Consider the worked cases shown below.
Return value of Intensity (against −ve control), BP3 for input MQRDSWEDIFELLFWG (not fully specified (N-terminus)) [Peptide 5C] , no commentary. 4.5-BP3 fold-change

Return the recorded Intensity (against −ve control), BP3 value; entry: DSWEDIFELLFWGRTS (not fully specified (N-terminus)) [Peptide 5D] 2.5-BP3 fold-change

Assign Intensity (against −ve control), BP3 to the following record: FEHFAMMQRDSWEDIF (not fully specified (N-terminus)) [Peptide 5A] 1.5-BP3 fold-change

// fetch Intensity (against −ve control), BP3 given entry KGKQYWEYQFQHQPSQ (not fully specified (N-terminus)) [Peptide 4A] 6-BP3 fold-change

Find the measured Intensity (against −ve control), BP3 of QYWEYQFQHQPSQEEC (not fully specified (N-terminus)) [Peptide 4B] and report it. 12-BP3 fold-change

Shifting focus to the sequence that follows.
Find the measured Intensity (against −ve control), BP3 of FAMMQRDSWEDIFELL (not fully specified (N-terminus)) [Peptide 5B] and report it. 4.5-BP3 fold-change
